Tested on: Mus musculus
EXPERIMENTAL_DETAILS: Acute toxicity in ip dosed Swiss albino mouse xenografted with human HepG2 cells assessed as mortality measured up to two weeks
Assay type: organism-based
TEST_SETTINGS: in vivo
MEASURE_NAME: LD50 (mg/kg)
Give bare numbers, in mg/kg.

Examples with answers:
MOLECULE	LD50 / mg/kg
N#Cc1c(N)nc(S[C@@H]2O[C@H](O)[C@@H](O)[C@H](O)[C@H]2O)c(C#N)c1-c1ccc2ccccc2c1	0.13
N#CC1=C(N)NC(S[C@@H]2O[C@H](O)[C@H](O)[C@H](O)[C@H]2O)=C(C#N)C1c1ccc2ccccc2c1 (some centres undefined)	0.13
CC(=O)O[C@H]1O[C@@H](SC2=C(C#N)C(c3ccc4ccccc4c3)C(C#N)=C(N)N2)[C@H](OC(C)=O)[C@@H](OC(C)=O)[C@H]1OC(=O)O (some centres undefined)	0.065

Okay, next one:
Request: Send back Mus musculus LD50 of COc1ccc(-c2c(C#N)c(N)nc(S[C@@H]3O[C@H](OC(C)=O)[C@H](OC(C)=O)[C@H](OC(C)=O)[C@H]3OC(C)=O)c2C#N)cc1 only.
Result: 0.065

###

For each record, write down the corresponding LD50.
System: Mus musculus
EXPERIMENTAL_DETAILS: Acute toxicity in ip dosed Swiss albino mouse xenografted with human HepG2 cells assessed as mortality measured up to two weeks
Assay type: organism-based
TEST_SETTINGS: in vivo
The reply must contain the numeric value and, after it, the unit.

Okay, here is my list. What is LD50 for each of these?
1. CC(=O)O[C@H]1O[C@@H](SC2=C(C#N)C(c3ccc(Br)cc3)C(C#N)=C(N)N2)[C@H](OC(C)=O)[C@@H](OC(C)=O)[C@@H]1OC(=O)O (some centres not stated)
2. N#CC1=C(N)NC(S[C@@H]2O[C@H](O)[C@@H](O)[C@H](O)[C@H]2O)=C(C#N)C1c1ccc2ccccc2c1 (some centres not stated)

Result:
["0.09 mg/kg", "0.11 mg/kg"]

Okay, here is my list. What is LD50 for each of these?
1. COc1ccc(C2C(C#N)=C(N)NC(S[C@@H]3O[C@H](O)[C@@H](O)[C@H](O)[C@H]3O)=C2C#N)cc1 (some centres not stated)
2. COc1ccc(C2C(C#N)=C(N)NC(S[C@@H]3O[C@H](OC(C)=O)[C@@H](OC(=O)O)[C@H](OC(C)=O)[C@H]3OC(C)=O)=C2C#N)cc1 (some centres not stated)
3. N#Cc1c(N)nc(S[C@@H]2O[C@H](O)[C@H](O)[C@H](O)[C@H]2O)c(C#N)c1-c1ccc2ccccc2c1
4. N#Cc1c(N)nc(S[C@@H]2O[C@H](O)[C@@H](O)[C@H](O)[C@H]2O)c(C#N)c1-c1ccc(Br)cc1
5. CC(=O)O[C@H]1O[C@@H](SC2=C(C#N)C(c3ccccc3)C(C#N)=C(N)N2)[C@H](OC(C)=O)[C@@H](OC(C)=O)[C@@H]1OC(=O)O (some centres not stated)

Result:
0.11 mg/kg
0.15 mg/kg
0.145 mg/kg
0.105 mg/kg
0.08 mg/kg

###

System: Mus musculus
EXPERIMENTAL_DETAILS: Acute toxicity in ip dosed Swiss albino mouse inoculated with human HeLa cells assessed as mortality measured up to two weeks
Assay type: organism-based
TEST_SETTINGS: in vivo
MEASURE_NAME: LD50 (µg/kg)
One number for each entry, in µg/kg.

COMPOUND	LD50, µg/kg
N#Cc1c(N)nc(S[C@@H]2O[C@H](O)[C@H](O)[C@H](O)[C@H]2O)c(C#N)c1-c1ccc2ccccc2c1	125
CC(=O)O[C@H]1O[C@@H](SC2=C(C#N)C(c3ccccc3)C(C#N)=C(N)N2)[C@H](OC(C)=O)[C@@H](OC(C)=O)[C@H]1OC(=O)O (some centres undefined)	60

Okay, here is my list. What is LD50 for each of these?
1. N#Cc1c(N)nc(S[C@@H]2O[C@H](O)[C@@H](O)[C@H](O)[C@H]2O)c(C#N)c1-c1ccc2ccccc2c1
2. N#CC1=C(N)NC(S[C@@H]2O[C@H](O)[C@@H](O)[C@H](O)[C@H]2O)=C(C#N)C1c1ccc2ccccc2c1 (some centres undefined)
3. CC(=O)O[C@H]1O[C@@H](Sc2nc(N)c(C#N)c(-c3ccccc3)c2C#N)[C@H](OC(C)=O)[C@@H](OC(C)=O)[C@H]1OC(C)=O
4. CC(=O)O[C@H]1O[C@@H](Sc2nc(N)c(C#N)c(-c3ccc4ccccc4c3)c2C#N)[C@H](OC(C)=O)[C@@H](OC(C)=O)[C@@H]1OC(C)=O
5. COc1ccc(C2C(C#N)=C(N)NC(S[C@@H]3O[C@H](O)[C@H](O)[C@H](O)[C@H]3O)=C2C#N)cc1 (some centres undefined)
6. N#Cc1c(N)nc(S[C@@H]2O[C@H](O)[C@@H](O)[C@H](O)[C@H]2O)c(C#N)c1-c1ccc(Br)cc1
7. CC(=O)O[C@H]1O[C@@H](SC2=C(C#N)C(c3ccccc3)C(C#N)=C(N)N2)[C@H](OC(C)=O)[C@@H](OC(C)=O)[C@@H]1OC(=O)O (some centres undefined)
8. CC(=O)O[C@H]1O[C@@H](Sc2nc(N)c(C#N)c(-c3ccc(Br)cc3)c2C#N)[C@H](OC(C)=O)[C@@H](OC(C)=O)[C@@H]1OC(C)=O

Result:
110
115
60
60
80
120
75
75

Okay, here is my list. What is LD50 for each of these?
1. N#CC1=C(N)NC(S[C@@H]2O[C@H](O)[C@H](O)[C@H](O)[C@H]2O)=C(C#N)C1c1ccc2ccccc2c1 (some centres undefined)
2. COc1ccc(C2C(C#N)=C(N)NC(S[C@@H]3O[C@H](OC(C)=O)[C@H](OC(=O)O)[C@H](OC(C)=O)[C@H]3OC(C)=O)=C2C#N)cc1 (some centres undefined)
3. CC(=O)O[C@H]1O[C@@H](SC2=C(C#N)C(c3ccc4ccccc4c3)C(C#N)=C(N)N2)[C@H](OC(C)=O)[C@@H](OC(C)=O)[C@H]1OC(=O)O (some centres undefined)
4. CC(=O)O[C@H]1O[C@@H](SC2=C(C#N)C(c3ccc(Br)cc3)C(C#N)=C(N)N2)[C@H](OC(C)=O)[C@@H](OC(C)=O)[C@@H]1OC(=O)O (some centres undefined)

Result:
1: 120; 2: 65; 3: 70; 4: 90

###

Test system: Mus musculus
EXPERIMENTAL_DETAILS: Acute toxicity in ip dosed Swiss albino mouse xenografted with human HepG2 cells assessed as mortality measured up to two weeks
Format: organism-based
TEST_SETTINGS: in vivo
MEASURE_NAME: LD50 (mg/kg)
One number for each entry, in mg/kg.

Examples with answers:
COMPOUND	MEASURE_NAME	UNIT_ABBREVIATION	TEST_VALUE
COc1ccc(C2C(C#N)=C(N)NC(S[C@@H]3O[C@H](OC(C)=O)[C@H](OC(=O)O)[C@H](OC(C)=O)[C@H]3OC(C)=O)=C2C#N)cc1 (stereo partly drawn)	LD50	mg/kg	0.06
CC(=O)O[C@H]1O[C@@H](Sc2nc(N)c(C#N)c(-c3ccc(Br)cc3)c2C#N)[C@H](OC(C)=O)[C@@H](OC(C)=O)[C@@H]1OC(C)=O	LD50	mg/kg	0.065

Okay, next one:
Request: Send back Mus musculus LD50 of CC(=O)O[C@H]1O[C@@H](Sc2nc(N)c(C#N)c(-c3ccc4ccccc4c3)c2C#N)[C@H](OC(C)=O)[C@@H](OC(C)=O)[C@H]1OC(C)=O only.
Result: 0.125
